Biological target: Prostacyclin receptor (Homo sapiens) (UniProt P43119)
Sequence (P43119 whole entry): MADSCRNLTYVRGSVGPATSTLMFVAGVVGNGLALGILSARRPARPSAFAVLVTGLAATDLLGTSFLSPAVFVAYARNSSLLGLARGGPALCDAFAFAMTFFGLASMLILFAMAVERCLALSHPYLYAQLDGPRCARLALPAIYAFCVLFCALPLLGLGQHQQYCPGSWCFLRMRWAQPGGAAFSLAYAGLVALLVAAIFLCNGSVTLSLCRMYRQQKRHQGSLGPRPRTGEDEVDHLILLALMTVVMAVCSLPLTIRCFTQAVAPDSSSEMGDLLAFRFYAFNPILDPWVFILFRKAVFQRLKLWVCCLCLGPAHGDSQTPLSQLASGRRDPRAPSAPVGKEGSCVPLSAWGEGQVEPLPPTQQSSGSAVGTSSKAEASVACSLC
Assay: Antagonist activity at human IP receptor overexpressed in rat C6 cells assessed as inhibition of iloprost-induced cAMP accumulation incubated for 10 mins prior to iloprost addition measured after 40 mins by TR-FRET assay
Format: functional, cell-based
outcome.measure: log10 of Kb (log10 of the value in nM)
In our notation, the value equals log10 of Kb in nM.

Query: Item `CCc1nnc(NS(=O)(=O)c2ccc(NC(=S)NC(=O)c3ccc(OC)cc3)cc2)s1` has what recorded log10 of Kb?
Reply: 3.24

Query: Item `COc1cc(NS(=O)(=O)c2ccc(NC(=S)NC(=O)c3sc4cc(F)ccc4c3Cl)cc2)nc(OC)n1` has what recorded log10 of Kb?
Reply: 4.32

Query: Item `CCc1nnc(NS(=O)(=O)c2ccc(NC(=S)NC(=O)/C=C/c3cccs3)cc2)s1` has what recorded log10 of Kb?
Reply: 3.35

Query: Item `COc1cc(NS(=O)(=O)c2ccc(NC(=S)NC(=O)c3cccs3)cc2)nc(OC)n1` has what recorded log10 of Kb?
Reply: 3.77

Query: Item `CCc1nnc(NS(=O)(=O)c2ccc(NC(=S)NC(=O)/C=C/c3ccc(OC)cc3)cc2)s1` has what recorded log10 of Kb?
Reply: 2.56

Query: Item `COc1ccc(NS(=O)(=O)c2ccc(NC(=S)NC(=O)/C=C/c3ccc(C)cc3)cc2)nn1` has what recorded log10 of Kb?
Reply: 2.56
